Record form. Attribute: Kd. Fill in for each entry.
Biological target: T1, purified human activated C1s protein, two-chain form (Homo sapiens, UniProt P09871 16-688)
T1 construct: Purified protein bought from EMD Millipore; Biotin-labeled in the clone screen; also called active C1s; native C1s protein
T1 sequence: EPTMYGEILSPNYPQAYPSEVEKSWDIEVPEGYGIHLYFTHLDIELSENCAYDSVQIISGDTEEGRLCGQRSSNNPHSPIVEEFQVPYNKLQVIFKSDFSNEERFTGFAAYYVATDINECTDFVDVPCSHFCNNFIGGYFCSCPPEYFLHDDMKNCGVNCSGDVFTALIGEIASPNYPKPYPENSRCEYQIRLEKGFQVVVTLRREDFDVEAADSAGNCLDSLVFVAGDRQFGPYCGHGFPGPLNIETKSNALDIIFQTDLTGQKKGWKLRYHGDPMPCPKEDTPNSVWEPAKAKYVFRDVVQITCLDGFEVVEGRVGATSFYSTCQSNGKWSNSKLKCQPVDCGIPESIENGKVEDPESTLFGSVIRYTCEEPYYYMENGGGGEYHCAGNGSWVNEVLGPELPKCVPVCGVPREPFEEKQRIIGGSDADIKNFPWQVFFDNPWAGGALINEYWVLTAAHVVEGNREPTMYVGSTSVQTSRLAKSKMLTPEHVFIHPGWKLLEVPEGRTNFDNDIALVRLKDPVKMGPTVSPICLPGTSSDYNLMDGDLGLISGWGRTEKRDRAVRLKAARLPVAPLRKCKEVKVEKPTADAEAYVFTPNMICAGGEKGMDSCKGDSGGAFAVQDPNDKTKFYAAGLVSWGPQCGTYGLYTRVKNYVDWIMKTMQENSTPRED
Assay: bio-layer interferometry (BLI), kinetic analysis

Tell me measured Kd for antibody IPN-M18 (antibody, V domains shown, Mouse monoclonal antibody (NZBW hybridoma)) VH: EVQLQQSGPELVKPGASVKISCKASGYSFTGYYIHWVKQSPEKSLEWIGEINPTTNDTTYNQKFKAKATLTVDKSSNTAYMQLKSLTSEDSAVYYCSRDISGPAWFAYWGQGTLVTVSA VL: DIVLTQTTAIMSASPGEKVTMTCSASSSISYMYWFQQKPGTSPKRWIYDTSKLASGVPARFSGSGSGTSYSLTISTMEAEDAATYYCHQRSSDPTFGGGTKLEINR please. 1.98 nM

Tell me measured Kd for antibody IPN-M29 (antibody, V domains shown, Mouse monoclonal antibody (NZBW hybridoma)) VH: EVQLQQSGPELVKPGASVKISCKASGYSFTGFYMQWVKQSPEKNLEWIGEINPTTGDETYNQKFQAKATLTVDKSSSTAYMQLKSLTSEDSAVYFCASDFYDGSFAWFEYWGKDYLTVSA VL: DIVLTQSPVIMSASPGEKVTMTCSASSSISYIHWYQQKPGTSPKRWIYDTSKLASGVPARFSGSGSGTSYSLTISSMEAEDAATYYCHQRSSYLTFGSGTKLEIK please. 1.28 nM
